systemName: T1, mouse SIRPα on cells (mouse, UniProt P97797 32-513)
T1 construct: whole, on cells
T1 sequence (looked up): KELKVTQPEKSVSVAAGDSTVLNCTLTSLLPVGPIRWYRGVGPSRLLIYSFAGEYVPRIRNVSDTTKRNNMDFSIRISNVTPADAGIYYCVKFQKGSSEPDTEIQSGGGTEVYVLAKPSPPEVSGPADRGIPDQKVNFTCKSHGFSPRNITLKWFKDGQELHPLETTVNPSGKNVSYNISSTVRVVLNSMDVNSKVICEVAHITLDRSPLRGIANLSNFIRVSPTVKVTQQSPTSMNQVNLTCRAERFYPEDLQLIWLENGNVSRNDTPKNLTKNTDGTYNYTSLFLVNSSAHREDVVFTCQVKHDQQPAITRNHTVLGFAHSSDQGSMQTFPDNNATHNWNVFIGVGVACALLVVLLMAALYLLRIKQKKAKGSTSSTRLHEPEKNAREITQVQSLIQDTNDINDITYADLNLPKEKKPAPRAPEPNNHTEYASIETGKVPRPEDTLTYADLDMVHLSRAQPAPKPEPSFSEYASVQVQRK
methodNotes: flow cytometry;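 also: antibodies tested at 1 µg/ml for 30 min on ice against receptor-expressing cells, detected with a PE-labelled secondary antibody, read as mean fluorescence intensity relative to background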
measuredAttribute: FOB (fold over background)
Give just the numeric value; fold over background need not be written.

Below: 2 binders and their reported FOB.
[
  {
    "binder": "SB-42 (antibody, V domains shown, IgG) VH: QVQLVQSGAEVKKPGASVKVSCKASGYTFTSYGISWVRQAPGQGLEWMGWISAYNGNTNYAQKLQGRVTMTTDTSTSTAYMELRSLRSDDTAVYYCARGPGHYYVAGMDVWGQGTTVTVSS VL: EIVMTQSPATLSVSPGERATITCRASQSISSYLNWYQQKPGKAPKLLIYSASSLQSGVPSRFSGSGSGTDFTLTISSLQPEDFATYYCQQGDSFPITFGGGTKVEIK",
    "FOB, fold over background": 1.2
  },
  {
    "binder": "SB-31 (antibody, V domains shown, IgG) VH: QVQLVQSGAEVKKPGASVKVSCKASGYTFTSYYMHWVRQAPGQGLEWMGIINPGGGSTSYAQKFQGRVTMTRDTSTSTVYMELSSLRSEDTAVYYCAREGLYSSGWYIDVWGQGTLVTVSS VL: DIQMTQSPSSVSASVGDRVTITCRASQGISSWLAWYQQKPGKAPKLLIYAASSLQSGVPSRFSGSGSGTDFTLTISSLQPEDFATYYCQQAVSHPFTFGGGTKVEIK",
    "FOB, fold over background": 1
  }
]

Now, please, on to the next binder.
Entry SB-14 (antibody, V domains shown, IgG) VH: QVQLVQSGAEVKKPGSSVKVSCKASGGTFSSYAISWVRQAPGQGLEWMGGIIPIFGTASYAQKFQGRVTITADESTSTAYMELSSLRSEDTAVYYCARDRGGVGFDYWGQGTLVTVSS VL: EIVMTQSPATLSLSPGERATLSCRASQSVSSYLAWYQQKPGQAPRLLIYDSSNRATGIPARFSGSGSGTDFTLTISSLEPEDFAVYYCQQFSYYPITFGGGTKVEIK : reported FOB = ?
1.2
